The reported measurements were obtained from paper PMC5913645.

System: rice d10 mutant
Assay: Rice micro tillering bioassay, d10 mutant
Assay type: in vivo
Settings: Oryza sativa, read-out: EC50 for tillering inhibition of the rice d10 mutant

compound	EC50
COC(=O)/C(=C/OC1C=C(C)C(=O)O1)c1ccccc1 (stereo not shown)	2.98 nM
CC1=CC(OC=C2C(=O)OC3c4ccccc4CC23)OC1=O (stereo not shown) [GR24, reference compound]	48.3 nM
COC(=O)/C(=C/OC1C=C(C)C(=O)O1)c1ccc([N+](=O)[O-])cc1 (stereo not shown)	242 nM
COC(=O)/C(=C/OC1C=C(C)C(=O)O1)c1ccc(Cl)cc1 (stereo not shown)	25.4 nM

###

Test: Chemical stability in aqueous solution (UHPLC)
Type: physicochemical
Settings: aqueous solution pH 6.8, 21 °C, 50 μg ml^−1, monitored at 24 h intervals up to 3 weeks

compound	stability in comparison with GR24
COC(=O)/C(=C/OC1C=C(C)C(=O)O1)c1ccc(C)cc1 (stereo not shown) [MP4]	more stable than GR24
COC(=O)/C(=C/OC1C=C(C)C(=O)O1)c1ccc(Cl)cc1 (stereo not shown) [MP7]	more stable than GR24

###

Test system: S. hermonthica seeds
Test: Striga hermonthica seed germination bioassay
Format: in vivo
Conditions: Striga hermonthica; concentrations 10^–5 to 10^–12 M
Rule: EC50 below 30 nM gives criterion met, anything at or above gives criterion not met.

compound	targetDesc	labelValue
CC1=CC(OC=C2C(=O)OC3c4ccccc4CC23)OC1=O (centres unmarked) [GR24, reference compound]	S. hermonthica seeds	criterion met
COC(=O)/C(=C/OC1C=C(C)C(=O)O1)c1ccccc1 (centres unmarked)	S. hermonthica seeds	criterion not met
COC(=O)/C(=C/OC1C=C(C)C(=O)O1)c1ccc([N+](=O)[O-])cc1 (centres unmarked)	S. hermonthica seeds	criterion met
COC(=O)C(=COC1C=C(C)C(=O)O1)c1cccc2ccccc12 (centres unmarked)	S. hermonthica seeds	criterion not met
COC(=O)/C(=C/OC1C=C(C)C(=O)O1)c1ccccc1[N+](=O)[O-] (centres unmarked)	S. hermonthica seeds	criterion not met

###

Assay: Chemical stability in aqueous solution (UHPLC)
Assay type: physicochemical
Settings: aqueous solution pH 6.8, 21 °C, 50 μg ml^−1, monitored at 24 h intervals up to 3 weeks
observedProperty: stability in comparison with GR24

molecule	measuredResult
COC(=O)/C(=C\OC1C=C(C)C(=O)O1)c1ccccc1Cl (centres unmarked)	more stable than GR24
COC(=O)/C(=C/OC1C=C(C)C(=O)O1)c1ccccc1 (centres unmarked)	more stable than GR24
COC(=O)/C(=C/OC1C=C(C)C(=O)O1)c1ccccc1[N+](=O)[O-] (centres unmarked)	more stable than GR24

###

Target: OsD14 (Oryza sativa subsp. japonica)
Construct: made in house; host or cells: E. coli BL21 (DE3)
Assay: Intrinsic tryptophan fluorescence assay, OsD14
Assay type: binding, rice
Procedure: Striga hermonthica ShHTL7 cDNA was used, GenBank accession KR013127, kindly provided by Tsuyoshi Ota, The University of Tokyo, Japan. Arabidopsis D14 (AtD14) cDNA, GenBank accession AY097402, was synthesized and cloned into pUC57 (GenScript). […] ShHTL7/D14 tryptophans were excited at 280 nm and emission intensity was measured at 333 nm. […] Each concentration point was measured in triplicate. Emitted fluorescence was monitored using a spectraMaxi3 plate reader (Molecular Devices) in 96-well black plates. […]
pKd: −log10 of the molar value.
observedProperty: pKd

compound	targetDesc	measuredResult
CC1=CC(OC=C2C(=O)OC3c4ccccc4CC23)OC1=O (stereo not shown) [GR24, reference compound]	OsD14 (Oryza sativa subsp. japonica)	5.38

###

The entries below come with measured pKd values attached.
Target: OsD14 (Oryza sativa subsp. japonica, UniProt Q10QA5)
Construct: made in house; host or cells: E. coli BL21 (DE3)
Sequence (Q10QA5 whole entry): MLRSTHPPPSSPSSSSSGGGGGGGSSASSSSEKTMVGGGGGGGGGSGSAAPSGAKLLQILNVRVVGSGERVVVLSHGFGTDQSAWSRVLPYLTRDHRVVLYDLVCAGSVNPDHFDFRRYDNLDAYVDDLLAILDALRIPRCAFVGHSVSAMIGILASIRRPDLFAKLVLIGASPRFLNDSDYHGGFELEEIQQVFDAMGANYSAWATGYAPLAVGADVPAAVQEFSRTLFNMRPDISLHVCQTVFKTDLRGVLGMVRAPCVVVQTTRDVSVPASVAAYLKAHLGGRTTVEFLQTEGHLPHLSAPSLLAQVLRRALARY
Experiment: Intrinsic tryptophan fluorescence assay, OsD14
Format: binding, rice
Conditions: 10 μM protein, 30 min, room temperature; read-out: Kd, OsD14
Description: Striga hermonthica ShHTL7 cDNA was used, GenBank accession KR013127, kindly provided by Tsuyoshi Ota, The University of Tokyo, Japan. Arabidopsis D14 (AtD14) cDNA, GenBank accession AY097402, was synthesized and cloned into pUC57 (GenScript). […] ShHTL7/D14 tryptophans were excited at 280 nm and emission intensity was measured at 333 nm. […] Each concentration point was measured in triplicate. Emitted fluorescence was monitored using a spectraMaxi3 plate reader (Molecular Devices) in 96-well black plates. […]
pKd: −log10 of the molar value.
observedProperty: pKd

molecule	observedProperty	measuredResult
COC(=O)/C(=C/OC1C=C(C)C(=O)O1)c1ccc([N+](=O)[O-])cc1 (stereo not drawn)	pKd	5.45
COC(=O)/C(=C/OC1C=C(C)C(=O)O1)c1ccc(Cl)cc1 (stereo not drawn)	pKd	5.06
COC(=O)/C(=C/OC1C=C(C)C(=O)O1)c1ccccc1 (stereo not drawn)	pKd	5.13
